Reference source: ChEMBL document CHEMBL4130536

Quick reference for MIC among some compounds
Test system: Salmonella enterica
assay-comment: Antimicrobial activity against Salmonella enterica incubated for 24 hrs
Type: functional

Some compounds with recorded MIC:
# entry-smiles, measured-result
measured = [
    ("CCCCCCCCCCCCCCCCNC(=O)[C@H](O)CO[C@H]1O[C@H](CO)[C@@H](O)[C@H](O)[C@H]1NC(C)=O", "> 128 µM"),
    ("CCCCCCC/C=C\\CCCCCCCCNC(=O)[C@H](O)CO[C@H]1O[C@H](CO)[C@@H](O)[C@H](O)[C@H]1NC(C)=O", "> 128 µM"),
    ("CCCCCCCCCCCCCCCCCNC(=O)[C@H](O)CO[C@H]1O[C@H](CO)[C@@H](O)[C@H](O)[C@H]1NC(C)=O", "> 128 µM"),
]

Now consider a different compound.
Prompt: Hello, I am looking for reported MIC with Salmonella enterica for `CCCCCC/C=C\CCCCCCCCNC(=O)[C@H](O)CO[C@H]1O[C@H](CO)[C@@H](O)[C@H](O)[C@H]1NC(C)=O` . Could you help?
Completion: > 128 µM
